method-notes: Microsome Stability (15 min), human
Type: in vitro ADME
test-context: microsomes, Phase I (NADPH), read-out: Microsome Stability (15 min) T ½ Phase I human
readout: half-life (min)

Consider the following illustrative entries.
smiles-structure | half-life (min)
COc1ccc2[nH]c(-c3ccccc3)c(/C=C3\Oc4cc(OC(=O)C(C)(C)C)cc(OC(=O)C(C)(C)C)c4C3=O)c2c1 | 19
COc1ccc2[nH]c(-c3ccccc3)c(/C=C3\Oc4cc(OC(=O)N(C)C)ccc4C3=O)c2c1 | 13
COC(=O)Oc1cc(OC(=O)OC)c2c(c1)O/C(=C\c1c(-c3ccccc3)[nH]c3ccc(OC)cc13)C2=O | 3
COc1ccc2[nH]c(-c3ccccc3)c(/C=C3\Oc4cc(OC(=O)c5ccccc5)ccc4C3=O)c2c1 | 4
COc1ccc2c(c1)c(/C=C1\Oc3cc(OC(=O)N(C)c4ccccc4)cc(OC(=O)N(C)c4ccccc4)c3C1=O)cn2CCCN(C)C | 24

I. COc1ccc2c(c1)c(/C=C1\Oc3cc(OC(=O)OC(C)C)cc(OC(=O)OC(C)C)c3C1=O)cn2CCCN(C)C
II. COc1ccc2[nH]c(-c3ccccc3)c(C=C3Oc4cc(O)cc(O)c4C3=O)c2c1
Please state the entry with greater half-life among I and II . Output the label that corresponds to your choice.
II
(II: 24 min, I: 3 min)
